# measurement.notes: chemical genetic growth profiling, strain panel (AID 1159580);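 also: tested at 20 µM; growth read once vehicle control cultures reached saturation at 30 °C; 1 = growth at the plate median or of vehicle wells; lower values mean less growth of the strain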
# assay.setup: S. cerevisiae deletion strains, growth OD, locus YDR502C, strain sam2, stronger effect = lower value
The campaign covered roughly 5,500 compounds. About 2,000 (36%) were called active. Another 18% or so got no clear call; they are omitted. The list shows a part of the results.
measured.property: normalized growth
No unit in the answer, only the number.

The following compounds have reported results that may help.
{"columns": ["compound", "assay.result"],
 "data": [
  ["NS(=O)(=O)c1cc2c(cc1C(F)(F)F)NC(Cc1ccccc1)NS2(=O)=O (stereo not drawn)", 0.996],
  ["Cc1c(OCC(F)(F)F)ccnc1CS(=O)c1nc2ccccc2[nH]1 (stereo not drawn)", 0.94]
]}

Returns the measured normalized growth for the input compound. Input: CC(C)Nc1nc(Cl)nc(NC(C)C)n1
1.01

Item: CC1(C)S[C@@H]2C(N3C(=O)[C@@H](c4ccccc4)NC3(C)C)C(=O)N2[C@H]1C(=O)O (stereo partly drawn)
1.03

====

# measurement.notes: chemical genetic growth profiling, strain panel (AID 1159580);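 also: tested at 20 µM; growth read once vehicle control cultures reached saturation at 30 °C; 1 = growth at the plate median or of vehicle wells; lower values mean less growth of the strain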
# assay.setup: S. cerevisiae deletion strains, growth OD, locus YDR335W, strain msn5
The whole screen tested about 5,500 compounds, of which about 2,000 (36%) were called active. Another 18% or so got no clear call; they are omitted. Cut-off read from the data, not from the text of the source: active = normalized growth mostly below about 0.91 (no sharp cut-off); inconclusive = no clear call, values can overlap the other calls; inactive = mostly above about 0.92. Some of the results follow.
Give one outcome, nothing more. List: active, inactive

{"columns": ["compound", "assigned.class"],
 "data": [
  ["CC1=C2C(O)C(=O)OC3CC4C(C)(C)C(=O)C=C[C@]4(C)C(CC1)[C@]23C (some centres not stated)", "inactive"]
]}

# lookup: test call for CCC(=O)O[C@]1(C(=O)CCl)[C@@H](C)CC2C3CCC4=CC(=O)C=C[C@]4(C)[C@@]3(F)[C@@H](O)C[C@@]21C (some centres not stated)
inactive

Item: CC(C)Nc1nc(Cl)nc(NC(C)C)n1
inactive

Item: CCCCCC(O)C1C(=O)OC(C)C(O)/C=C/C=C/C=C/C=C/C=C(\C)C(O)CC(O)CC(O)CC(O)CC(O)CC(O)CC1O (configuration not stated)
inactive

Item: O=S(=O)(O)O
inactive

====

Examples of compounds with documented normalized growth follow.
# measurement.notes: chemical genetic growth profiling, strain panel (AID 1159580);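 also: tested at 20 µM; growth read once vehicle control cultures reached saturation at 30 °C; 1 = growth at the plate median or of vehicle wells; lower values mean less growth of the strain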
# assay.setup: S. cerevisiae deletion strains, growth OD, locus YEL061C, strain CIN8 (second series), stronger effect = lower value
The campaign covered roughly 5,500 compounds. About 2,000 (36%) were called active. Another 18% or so got no clear call; they are omitted. The list shows a part of the results.
No unit in the answer, only the number.

The following compounds have reported results that may help.
{"columns": ["compound", "measured.property", "assay.result"],
 "data": [
  ["O=C(O)C1=CC(=C(c2ccc(O)c(C(=O)O)c2)c2ccc(O)c(C(=O)O)c2)C=CC1=O", "normalized growth", 0.979],
  ["NS(=O)(=O)c1cc2c(cc1C(F)(F)F)NC(Cc1ccccc1)NS2(=O)=O (stereo not given)", "normalized growth", 0.989],
  ["O=C(Oc1ccccc1C(=O)O)c1ccccc1O", "normalized growth", 0.978],
  ["Oc1ccc([C@H]2Oc3cc(O)cc(O)c3C[C@H]2O)cc1", "normalized growth", 0.979],
  ["CN[C@H]1CC[C@@H](c2ccc(Cl)c(Cl)c2)c2ccccc21", "normalized growth", 1]
]}

# evaluate next
Returns the measured normalized growth for the input compound. Input: C/C=C(\C)C(=O)O[C@@H]1c2c(ccc3ccc(=O)oc23)OC(C)(C)[C@@H]1OC(C)=O
1
